Just for reference, PubChem BioAssay (Tox21) is where these values come from.

- test_description: Caspase-3/7 induction in HepG2 cells by small molecules, qHTS cell viability counter screen (AID 1346981); further: nearly all actives have a fitted effect of over 30% in size; further: potency means the concentration at half of the fitted maximal effect
- experimental_context: CellTiter-Fluor fluorescence, 17 h; series mostly up to 92.4 µM
Inconclusive results are not listed. Active and inactive are the calls of the source. The call rests on the fitted dose curve; in most records, active means well fitted cell-killing curve with a large enough effect in the repeat runs; inconclusive means weak or mixed curves, or effect the other way; inactive means flat fitted curve, though single readings scatter.
quantity_name: Potency

> print(dat)
                                    compound  quantity.name    measured.value
 1  CCC(C)c1cc(C(C)(C)C)cc(-n2nc3ccccc3n2)c1O (stereo not drawn)        Potency          inactive
 2         CC(=O)c1cc(C(C)(C)C)cc2c1CCC2(C)C        Potency          inactive
 3           CCCCOCN(C(=O)CCl)c1c(CC)cccc1CC        Potency          inactive
 4          CC(=O)[O-].CC(=O)[O-].O.O.[Cd+2]        Potency  67.6 µM (active)
 5  CCOP(=S)(OCC)OC(Cl)C(Cl)(Cl)Cl (stereo not drawn)        Potency          inactive
 6                                Cl/C=C\CCl        Potency          inactive
 7                    O=C/C(Cl)=C(/Cl)C(=O)O        Potency          inactive
 8                O=[N+]([O-])c1cc(Cl)ccc1Cl        Potency          inactive
 9          CCOP(=S)(OCC)SCS(=O)(=O)C(C)(C)C        Potency          inactive
10                   Oc1c(Cl)c(Cl)cc(Cl)c1Cl        Potency          inactive
11  CCc1cc(C)cc(CC)c1-c1c(OC(=O)C(C)(C)C)n2n(c1=O)CCOCC2        Potency  30.6 µM (active)
12      O=[N+]([O-])c1ccc2ccc3cccc4ccc1c2c34        Potency  27.3 µM (active)
13                           O=c1ssc(Cl)c1Cl        Potency          inactive

* * *

- test_description: A CellTox Green Cytotoxicity Assay to monitor cytotoxicity in HEK293 cells - 8 hour (AID 1224884); further: nearly all actives have a fitted effect of over 35% in size
- experimental_context: CellTox Green fluorescence; series mostly up to 76.8 µM
- Description: National Center for Advancing Translational Sciences [NCATS] NIH Chemical Genomics Center [NCGC] U.S. Environmental Protection Agency [EPA] National Institutes of Environmental Health Sciences [NIEHS] National Toxicology Program [NTP] Cell-based models are critical for drug discovery. […] Viable cells produce no appreciable increases in fluorescence. Therefore, the fluorescence signal produced by the binding interaction with dead cell DNA is proportional to cytotoxicity. […]
Records with an inconclusive call do not appear. Active and inactive are the calls of the source. Calls follow the shape of the dose curve; as a rule, active = well fitted activation curve with a large enough effect in the repeat runs; inconclusive = weak or mixed curves; inactive = flat fitted curve, though single readings scatter.
Outcomes: active, inactive

compound	group_label
CC1(C)CC/C(=C/c2ccc(Cl)cc2)C1(O)Cn1cncn1 (centres undefined)	inactive
N#CCCO	inactive
O=[N+]([O-])c1cc(Cl)ccc1Cl	inactive
c1cc[c]([Sb]([c]2ccccc2)[c]2ccccc2)cc1	inactive
CC1(C)C(/C=C(\Cl)C(F)(F)F)C1C(=O)OC(C#N)c1cccc(Oc2ccccc2)c1 (centres undefined)	inactive
O=CC(Br)(Br)Br	inactive
CC(C)[C@H](C(=O)O[C@H](C#N)c1cccc(Oc2ccccc2)c1)c1ccc(Cl)cc1	inactive
COc1ccc(N)cc1N	inactive
COc1cc(C=O)cc2c1[C@H](COC(N)=O)[C@]1(OC(C)=O)ON2C[C@H]2[C@@H]1N2C(C)=O	inactive
Cc1ccc(CCl)cc1	inactive
N#CNC#N	inactive
N#Cc1c(-c2ccc(Cl)cc2)[nH]c(C(F)(F)F)c1Br	inactive
Cc1cc(Cl)ccc1O[C@H](C)C(=O)O	inactive
CCCCCCCCCCCCCN1CC(C)OC(C)C1 (centres undefined)	inactive
C=CCOC(N)=O	inactive
C[C@@H]1CC[C@@]2(OC1)O[C@H]1[C@@H](O)[C@H]3[C@@H]4CC[C@H]5C[C@@H](O[C@@H]6O[C@H](CO)[C@H](O[C@@H]7O[C@H](CO)[C@@H](O)[C@H](O[C@@H]8OC[C@@H](O)[C@H](O)[C@H]8O)[C@H]7O[C@@H]7O[C@H](CO)[C@@H](O)[C@H](O[C@@H]8O[C@H](CO)[C@@H](O)[C@H](O)[C@H]8O)[C@H]7O)[C@H](O)[C@H]6O)[C@H](O)C[C@]5(C)[C@H]4CC[C@]3(C)[C@H]1[C@@H]2C	active
CC[C@H](C)[C@H]1O[C@]2(C=C[C@@H]1C)C[C@@H]1C[C@@H](C/C=C(\C)[C@@H](O[C@H]3C[C@H](OC)[C@@H](O[C@H]4C[C@H](OC)[C@@H](O)[C@H](C)O4)[C@H](C)O3)[C@@H](C)/C=C/C=C3\CO[C@@H]4[C@H](O)C(C)=C[C@@H](C(=O)O1)[C@]34O)O2	inactive
O=C/C(Cl)=C(/Cl)C(=O)O	inactive
Clc1ccc(CSC(Cn2ccnc2)c2ccc(Cl)cc2Cl)cc1 (centres undefined)	inactive

* * *

- test_description: qHTS assay to identify small molecule antagonists of the TGF-beta/Smad signaling pathway - cell viability counter screen (AID 1346824); further: nearly all actives have a fitted effect of over 50% in size
- experimental_context: SBE-bla HEK293T viability, CellTiter-Glo luminescence; series mostly up to 76.8 µM
Records with an inconclusive call do not appear. The source made the active and inactive calls. Calls come from the whole dose curve; as a rule, active = well fitted cell-killing curve with a large enough effect in the repeat runs; inconclusive = weak or mixed curves; inactive = flat fitted curve, though single readings scatter.
Outcomes: active, inactive

> print(dat)
                                    compound  group.label
 1  CC1(C)CC/C(=C/c2ccc(Cl)cc2)C1(O)Cn1cncn1 (stereo not given)     inactive
 2                        [Cl][Sb]([Cl])[Cl]     inactive
 3                             C=CC(=O)N(C)C     inactive
 4  COc1cc(N)c(Cl)cc1C(=O)NC1CN2CCC1CC2 (stereo not given)     inactive
 5            CCCCCCCCCC[N+](C)(C)CCCCCCCCCC       active
 6  Cn1cc(C2=C(c3cn(C4CCN(Cc5ccccn5)CC4)c4ccccc34)C(=O)NC2=O)c2ccccc21     inactive
 7  CCCN(CC)CC1COC2(CCC(C(C)(C)C)CC2)O1 (stereo not given)     inactive
 8                               C=CCOC(N)=O     inactive
 9                 Oc1ccc2ccc3cccc4ccc1c2c34     inactive
10                                N#CC(Cl)Cl     inactive

* * *

- test_description: qHTS assay for small molecule activators of the heat shock response signaling pathway - cell viability counter screen (AID 743209); further: nearly all actives have a fitted effect of over 50% in size; further: potency means the concentration at half of the fitted maximal effect
- experimental_context: HSE-bla HeLa viability, CellTiter-Glo luminescence, 5 h; series mostly up to 62.6 µM
Results filed as inconclusive are left out. Calls of active or inactive are those of the source. The call rests on the fitted dose curve; in most records, active means well fitted cell-killing curve with a large enough effect in the repeat runs; inconclusive means weak or mixed curves, or effect the other way; inactive means no such curve, though single readings can be large or run the other way.
quantity_name: Potency

> print(dat)
                                   compound  quantity.name    measured.value
1                            COc1ccc(N)cc1N        Potency  8.01 µM (active)
2  CN(C)[C@@H]1C(=O)C(C(N)=O)=C(O)[C@@]2(O)C(=O)C3=C(O)c4c(O)ccc(Cl)c4[C@@](C)(O)[C@H]3C[C@@H]12        Potency          inactive
3  CCCCCCCCCCCCCC[P+](CCCCCC)(CCCCCC)CCCCCC (tested in a mixture with another compound)        Potency  3.47 µM (active)
4  O=C1NCN(c2ccccc2)C12CCN(CC1COc3ccccc3O1)CC2 (stereo unspecified)        Potency          inactive
5                               N#C/C=C/C#N        Potency          inactive
6          O=[N+]([O-])O.O=[N+]([O-])O.[Cd]        Potency          inactive

* * *

- test_description: Caspase-3/7 induction in CHO-K1 cells by small molecules, qHTS assay (AID 1346980); further: nearly all actives have a fitted effect of over 15% in size
- experimental_context: CHO-K1 caspase-3/7 induction, Caspase-Glo luminescence, 17 h; series mostly up to 92.4 µM
- From the text: National Center for Advancing Translational Sciences [NCATS] NIH Chemical Genomics Center [NCGC] U.S. Environmental Protection Agency [EPA] National Institutes of Environmental Health Sciences [NIEHS] National Toxicology Program [NTP] Apoptosis is a process of programmed cell death and plays a central role in the development of multicellular organisms. […]
Activity calls are given as the source filed them. The call rests on the fitted dose curve; in most records, active means well fitted activation curve with a large enough effect in the repeat runs; inconclusive means weak or mixed curves; inactive means flat fitted curve, though single readings scatter.
Outcomes: active, inactive

> print(dat)
                                    compound  group.label
 1                 COc1ccc([N+](=O)[O-])cc1O     inactive
 2                            CCCCCCCCCCCCBr     inactive
 3  CCC(C)(C)C(=O)OC1=C(c2ccc(Cl)cc2Cl)C(=O)OC12CCCCC2     inactive
 4                              Oc1ccc(I)cc1     inactive
 5                        CCCSP(=O)(OCC)SCCC     inactive
 6                                CSCCCN=C=S     inactive
 7                         O=C(CCl)Nc1ccccc1     inactive
 8              Cc1cc(Cl)ccc1O[C@H](C)C(=O)O     inactive
 9    Clc1ccc(C(c2ccc(Cl)cc2)C(Cl)(Cl)Cl)cc1     inactive
10                           ClC(Cl)=C(Cl)Cl     inactive
11  CCSC(C)CC1CC(=O)C(/C(CC)=N/OC/C=C/Cl)=C(O)C1 (configuration not stated)     inactive
12  ClC1=C(Cl)C2(Cl)C3C(Cl)C(Cl)CC3C1(Cl)C2(Cl)Cl (configuration not stated)       active
13                     COP(=O)(CCC(=O)NCO)OC     inactive
14  CCN(CC)c1c([N+](=O)[O-])cc(C(F)(F)F)c(N)c1[N+](=O)[O-]     inactive
15  CCOC(=O)c1ccccc1S(=O)(=O)NC(=O)Nc1nc(Cl)cc(OC)n1     inactive
16  CC(=O)O[C@H]1CC[C@@]2(C)C(=CC[C@@H]3[C@@H]2CC[C@]2(C)C(=O)CC[C@@H]32)C1     inactive
17  CC(C)(C)C(O)C(Oc1ccc(-c2ccccc2)cc1)n1cncn1 (configuration not stated)     inactive
18  c1ccc(OCC2CO2)cc1 (configuration not stated)     inactive
19  CC(C)(O)c1cnn2c(-c3ccc(F)c(-c4c(F)cccc4C#N)c3)cnc2n1     inactive
20                                     BrCBr     inactive
21         O=S(=O)(c1ccc(Cl)cc1)c1ccc(Cl)cc1     inactive
22        Fc1ccc(Oc2ccnc3cc(Cl)cc(Cl)c23)cc1     inactive
23  Clc1ccc(CO/N=C(\Cn2ccnc2)c2ccc(Cl)cc2Cl)c(Cl)c1     inactive
24  CC1(c2ccc(Oc3ccccc3)cc2)OC(=O)N(Nc2ccccc2)C1=O (configuration not stated)     inactive
25                     CCCCOP(=O)(CCCC)OCCCC     inactive
26  CC(C)(C)c1cc([N+](=O)[O-])cc(C(C)(C)C)c1O     inactive
27               CCCCCCCCCCCCCCCC[N+](C)(C)C     inactive
